- SYSTEM_UNDER_TEST: 5-hydroxytryptamine receptor 1A (Homo sapiens)
- Sequence (P08908 whole entry): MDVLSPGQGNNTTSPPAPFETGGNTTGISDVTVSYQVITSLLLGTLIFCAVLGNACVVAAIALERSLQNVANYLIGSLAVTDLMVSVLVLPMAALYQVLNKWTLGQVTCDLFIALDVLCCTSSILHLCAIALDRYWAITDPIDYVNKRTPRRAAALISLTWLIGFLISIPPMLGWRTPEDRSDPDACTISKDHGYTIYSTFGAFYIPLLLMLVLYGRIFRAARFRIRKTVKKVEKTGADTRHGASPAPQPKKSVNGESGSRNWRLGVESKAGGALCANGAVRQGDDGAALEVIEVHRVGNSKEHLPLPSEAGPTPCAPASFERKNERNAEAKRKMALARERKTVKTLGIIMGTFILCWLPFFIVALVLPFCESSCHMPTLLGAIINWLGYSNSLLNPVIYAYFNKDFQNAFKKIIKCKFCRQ
- TEST_PROTOCOL: Ability to inhibit the forskolin-stimulated c-AMP formation mediated by human 5-hydroxytryptamine 1A receptor in CHO-K1 cells
pKi: −log10 of the molar value.
Each entry below lists one item and its recorded pKi value.
REPORTED_ENDPOINT: pKi

[
  {
    "LINE_NOTATION": "NCCc1c[nH]c2ccc(OCCCCCCNS(=O)(=O)c3ccc(-c4ccc(S(=O)(=O)NCCCCCCOc5ccc6[nH]cc(CCN)c6c5)cc4)cc3)cc12",
    "SYSTEM_UNDER_TEST": "5-hydroxytryptamine receptor 1A (Homo sapiens)",
    "QUANTITATIVE_READOUT": 8.78
  },
  {
    "LINE_NOTATION": "NCCc1c[nH]c2ccc(OCCN3CCN(CCOc4ccc5[nH]cc(CCN)c5c4)CC3)cc12",
    "SYSTEM_UNDER_TEST": "5-hydroxytryptamine receptor 1A (Homo sapiens)",
    "QUANTITATIVE_READOUT": 8.02
  },
  {
    "LINE_NOTATION": "NCCc1c[nH]c2ccc(OCC(=O)N3CCN(C(=O)COc4ccc5[nH]cc(CCN)c5c4)CC3)cc12",
    "SYSTEM_UNDER_TEST": "5-hydroxytryptamine receptor 1A (Homo sapiens)",
    "QUANTITATIVE_READOUT": 7.70
  },
  {
    "LINE_NOTATION": "NCCc1c[nH]c2ccc(OCCCCCCOc3ccc4[nH]cc(CCN)c4c3)cc12",
    "SYSTEM_UNDER_TEST": "5-hydroxytryptamine receptor 1A (Homo sapiens)",
    "QUANTITATIVE_READOUT": 8.74
  },
  {
    "LINE_NOTATION": "NCCc1c[nH]c2ccc(OCC(=O)Nc3ccc(NC(=O)COc4ccc5[nH]cc(CCN)c5c4)cc3)cc12",
    "SYSTEM_UNDER_TEST": "5-hydroxytryptamine receptor 1A (Homo sapiens)",
    "QUANTITATIVE_READOUT": 8.39
  },
  {
    "LINE_NOTATION": "NCCc1c[nH]c2ccc(OCCNC(=O)COc3ccc4[nH]cc(CCN)c4c3)cc12",
    "SYSTEM_UNDER_TEST": "5-hydroxytryptamine receptor 1A (Homo sapiens)",
    "QUANTITATIVE_READOUT": 8.66
  },
  {
    "LINE_NOTATION": "NCCc1c[nH]c2ccc(OCC(=O)Nc3ccc(N4CCN(C(=O)COc5ccc6[nH]cc(CCN)c6c5)CC4)cc3)cc12",
    "SYSTEM_UNDER_TEST": "5-hydroxytryptamine receptor 1A (Homo sapiens)",
    "QUANTITATIVE_READOUT": 8.01
  },
  {
    "LINE_NOTATION": "NCCc1c[nH]c2ccc(OCCN3CCN(C(=O)COc4ccc5[nH]cc(CCN)c5c4)CC3)cc12",
    "SYSTEM_UNDER_TEST": "5-hydroxytryptamine receptor 1A (Homo sapiens)",
    "QUANTITATIVE_READOUT": 8.02
  }
]

###

- SYSTEM_UNDER_TEST: 5-hydroxytryptamine receptor 1A (Homo sapiens)
- Sequence (P08908 whole entry): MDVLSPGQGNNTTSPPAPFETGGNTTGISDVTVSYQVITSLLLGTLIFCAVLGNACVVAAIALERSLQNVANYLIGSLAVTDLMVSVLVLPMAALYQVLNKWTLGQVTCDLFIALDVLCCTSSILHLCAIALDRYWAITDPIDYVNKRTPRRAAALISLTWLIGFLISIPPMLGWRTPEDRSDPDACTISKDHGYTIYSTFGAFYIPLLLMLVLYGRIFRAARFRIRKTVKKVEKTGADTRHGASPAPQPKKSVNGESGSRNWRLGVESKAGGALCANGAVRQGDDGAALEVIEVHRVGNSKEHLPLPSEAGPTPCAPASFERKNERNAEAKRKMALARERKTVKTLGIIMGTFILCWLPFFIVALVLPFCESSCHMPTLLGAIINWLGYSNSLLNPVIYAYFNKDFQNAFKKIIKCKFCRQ
- TEST_PROTOCOL: Ability to inhibit the forskolin-stimulated c-AMP formation mediated by human 5-hydroxytryptamine 1A receptor in CHO-K1 cells
REPORTED_ENDPOINT: Ki

[
  {
    "LINE_NOTATION": "NCCc1c[nH]c2ccc(OCc3cccc(COc4ccc5[nH]cc(CCN)c5c4)c3)cc12",
    "SYSTEM_UNDER_TEST": "5-hydroxytryptamine receptor 1A (Homo sapiens)",
    "REPORTED_ENDPOINT": "Ki",
    "RESULT": "1 nM"
  },
  {
    "LINE_NOTATION": "NCCc1c[nH]c2ccc(OCCNC(=O)NCCOc3ccc4[nH]cc(CCN)c4c3)cc12",
    "SYSTEM_UNDER_TEST": "5-hydroxytryptamine receptor 1A (Homo sapiens)",
    "REPORTED_ENDPOINT": "Ki",
    "RESULT": "2.2 nM"
  },
  {
    "LINE_NOTATION": "NCCc1c[nH]c2ccc(OCC(=O)N3CCNCC3)cc12",
    "SYSTEM_UNDER_TEST": "5-hydroxytryptamine receptor 1A (Homo sapiens)",
    "REPORTED_ENDPOINT": "Ki",
    "RESULT": "> 100 nM"
  }
]

###

- SYSTEM_UNDER_TEST: 5-hydroxytryptamine receptor 1B (Homo sapiens)
- Sequence (P28222 whole entry): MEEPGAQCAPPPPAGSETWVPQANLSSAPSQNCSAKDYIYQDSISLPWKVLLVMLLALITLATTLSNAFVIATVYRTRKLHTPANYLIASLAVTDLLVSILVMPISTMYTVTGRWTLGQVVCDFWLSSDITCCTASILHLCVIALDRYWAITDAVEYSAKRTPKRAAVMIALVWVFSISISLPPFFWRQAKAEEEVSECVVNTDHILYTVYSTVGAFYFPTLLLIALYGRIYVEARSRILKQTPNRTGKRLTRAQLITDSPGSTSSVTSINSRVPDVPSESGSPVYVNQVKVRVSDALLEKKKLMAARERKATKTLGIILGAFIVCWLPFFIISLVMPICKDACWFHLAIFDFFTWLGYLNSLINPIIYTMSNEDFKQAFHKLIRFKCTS
- TEST_PROTOCOL: Inhibition of forskolin-stimulated c-AMP formation by human 5-hydroxytryptamine 1B receptor expressed in CHO-K1 cells
pEC50: −log10 of the molar value.

[
  {
    "LINE_NOTATION": "NCCc1c[nH]c2ccc(OCC(=O)NCCCNC(=O)COc3ccc4[nH]cc(CCN)c4c3)cc12",
    "pEC50": 10.05
  },
  {
    "LINE_NOTATION": "NCCc1c[nH]c2ccc(OCCCCCCNS(=O)(=O)c3ccc(-c4ccc(S(=O)(=O)NCCCCCCOc5ccc6[nH]cc(CCN)c6c5)cc4)cc3)cc12",
    "pEC50": 10.00
  },
  {
    "LINE_NOTATION": "NCCc1c[nH]c2ccc(OCCOc3ccc4[nH]cc(CCN)c4c3)cc12",
    "pEC50": 8.40
  },
  {
    "LINE_NOTATION": "NCCc1c[nH]c2ccc(OCC(=O)Nc3ccc(N4CCN(C(=O)COc5ccc6[nH]cc(CCN)c6c5)CC4)cc3)cc12",
    "pEC50": 9.40
  },
  {
    "LINE_NOTATION": "NCCc1c[nH]c2ccc(OCc3ccc(COc4ccc5[nH]cc(CCN)c5c4)cc3)cc12",
    "pEC50": 8.52
  },
  {
    "LINE_NOTATION": "NCCc1c[nH]c2ccc(OCc3ccccc3COc3ccc4[nH]cc(CCN)c4c3)cc12",
    "pEC50": 8.68
  },
  {
    "LINE_NOTATION": "NCCc1c[nH]c2ccc(OCC(=O)Nc3ccc(NC(=O)COc4ccc5[nH]cc(CCN)c5c4)cc3)cc12",
    "pEC50": 9.52
  },
  {
    "LINE_NOTATION": "NCCc1c[nH]c2ccc(OCc3cccc(COc4ccc5[nH]cc(CCN)c5c4)c3)cc12",
    "pEC50": 9.07
  },
  {
    "LINE_NOTATION": "NCCc1c[nH]c2ccc(OCCNC(=O)COc3ccc4[nH]cc(CCN)c4c3)cc12",
    "pEC50": 9.36
  },
  {
    "LINE_NOTATION": "NCCc1c[nH]c2ccc(OCCN3CCN(CCOc4ccc5[nH]cc(CCN)c5c4)CC3)cc12",
    "pEC50": 9.72
  },
  {
    "LINE_NOTATION": "NCCc1c[nH]c2ccc(OCC(=O)N3CCC(C4CCN(C(=O)COc5ccc6[nH]cc(CCN)c6c5)CC4)CC3)cc12",
    "pEC50": 9.59
  },
  {
    "LINE_NOTATION": "NCCc1c[nH]c2ccc(OCCCCCCOc3ccc4[nH]cc(CCN)c4c3)cc12",
    "pEC50": 9.22
  },
  {
    "LINE_NOTATION": "NCCc1c[nH]c2ccc(OCCN3CCN(C(=O)COc4ccc5[nH]cc(CCN)c5c4)CC3)cc12",
    "pEC50": 9.66
  },
  {
    "LINE_NOTATION": "NCCc1c[nH]c2ccc(OCCNC(=O)NCCOc3ccc4[nH]cc(CCN)c4c3)cc12",
    "pEC50": 8.80
  },
  {
    "LINE_NOTATION": "NCCc1c[nH]c2ccc(OCC(=O)N3CCN(C(=O)COc4ccc5[nH]cc(CCN)c5c4)CC3)cc12",
    "pEC50": 9.55
  }
]
